Molecular target: mutated isocitrate dehydrogenase (mIDH) protein overexpressed in LN229 R132H cells (Homo sapiens (Human), UniProt O75874, R132H)
Sequence (O75874 whole entry R132H): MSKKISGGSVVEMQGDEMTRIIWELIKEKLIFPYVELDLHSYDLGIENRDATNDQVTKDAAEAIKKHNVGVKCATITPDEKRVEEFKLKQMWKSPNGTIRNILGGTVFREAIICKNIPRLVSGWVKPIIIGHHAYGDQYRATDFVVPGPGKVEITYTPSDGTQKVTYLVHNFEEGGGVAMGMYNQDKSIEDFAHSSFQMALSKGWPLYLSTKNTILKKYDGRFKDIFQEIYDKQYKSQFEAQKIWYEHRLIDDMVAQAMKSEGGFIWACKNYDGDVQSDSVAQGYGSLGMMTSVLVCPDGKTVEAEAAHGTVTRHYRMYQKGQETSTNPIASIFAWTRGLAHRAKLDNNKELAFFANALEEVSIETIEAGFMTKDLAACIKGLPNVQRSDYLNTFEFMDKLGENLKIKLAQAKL
Test: Mutant IDH1 cellular assay (2-HG in medium of LN229 R132H cells)
Conditions: 24 hours, fluorescence readout
pIC50: −log10 of the molar value.
measured-metric: pIC50

Recorded results for 7 compounds are shown here.
- compound: "Cc1n[nH]c(C)c1-c1ccc2c(c1)nc(Nc1ccc(SC(F)(F)F)cc1)n2[C@@H]1C[C@H](C)CC(C)(C)C1 (stereo in doubt) [Example 2-10-1]"
  pIC50: 5.00
- compound: "Cc1cc2c(cc1-c1c(C)n[nH]c1C)nc(Nc1ccc(OC(F)(F)F)cc1)n2C1CC(C)(C)CC(C)(C)C1"
  pIC50: 5.57
- compound: "Cc1n[nH]c(C)c1-c1ccc2c(c1)nc(Nc1ccc(OC(F)(F)F)cc1)n2[C@@H]1C[C@H](C)CC(C)(C)C1 (stereo in doubt)"
  pIC50: 5.40
- compound: "C[C@H]1C[C@@H](n2c(Nc3ccc(OC(F)(F)F)cc3)nc3cc(-c4cnoc4)ccc32)CC(C)(C)C1 (stereo in doubt)"
  pIC50: 5.70
- compound: "Cc1nnc(-c2cc3nc(Nc4ccc(OC(F)(F)F)cc4)n(C4CC(C)(C)CC(C)(C)C4)c3cc2C)[nH]1"
  pIC50: 5.82
- compound: "C[C@H]1C[C@@H](n2c(Nc3ccc(SC(F)(F)F)cc3)nc3cc(-c4ccn[nH]4)ccc32)CC(C)(C)C1 (stereo in doubt)"
  pIC50: 5.60
- compound: "Cc1noc(C)c1-c1ccc2c(c1)nc(Nc1ccc(SC(F)(F)F)cc1)n2[C@@H]1C[C@H](C)CC(C)(C)C1 (stereo in doubt)"
  pIC50: 5.00

A. C[C@H]1C[C@@H](n2c(Nc3ccc(OC(F)(F)F)cc3)nc3cc(-c4cn[nH]c4)ccc32)CC(C)(C)C1 (stereo in doubt)
B. C[C@H]1C[C@@H](n2c(Nc3ccc(OC(F)(F)F)cc3)nc3cc(-c4cnn(C)c4)ccc32)CC(C)(C)C1 (stereo in doubt)
*Q* Pick one: A or B . Which has the bigger pIC50 number? Use the label to indicate which entry you chose.
*A* A

====

Molecular target: IDH1 R132H enzyme (Homo sapiens (Human), UniProt O75874, R132H)
Sequence (O75874 whole entry R132H): as above
Experiment: Mutant IDH1 R132H biochemical assay
Conditions: NADPH consumption, luminescent readout; 1.5 nM enzyme, 250 μM α-KG, 1 μM NADPH, 30 minutes, 32° C.; test range 0.002-10 μM
measured-metric: IC50 (nM)

Answered cases to consult:
- molecule: "C[C@H]1C[C@@H](n2c(Nc3ccc(SC(F)(F)F)cc3)nc3cc(-c4ccn[nH]4)ccc32)CC(C)(C)C1 (stereo in doubt)"
  IC50 (nM): 770
- molecule: "C[C@H]1C[C@@H](n2c(Nc3ccc(OC(F)(F)F)cc3)nc3cc(-c4cn[nH]c4)ccc32)CC(C)(C)C1 (stereo in doubt)"
  IC50 (nM): 80
- molecule: "C[C@@H]1C[C@H](n2c(Nc3ccc(OC(F)(F)F)cc3)nc3cc(-c4cc(F)c(O)c(F)c4)ccc32)CC(C)(C)C1 (racemic)"
  IC50 (nM): 670
- molecule: "Cc1noc(C)c1-c1ccc2c(c1)nc(Nc1ccc(OC(F)(F)F)cc1)n2[C@H]1C[C@@H](C)CC(C)(C)C1 (racemic) [Example 2-1]"
  IC50 (nM): 120
- molecule: "C[C@@H]1C[C@H](n2c(Nc3ccc(OC(F)(F)F)cc3)nc3cc(-c4cnn(C)c4)ccc32)CC(C)(C)C1 (stereo in doubt)"
  IC50 (nM): 1000

a. C[C@H]1C[C@@H](n2c(Nc3ccc(OC(F)(F)F)cc3)nc3cc(-c4cn(C)nc4C(F)(F)F)ccc32)CC(C)(C)C1 (stereo in doubt) [Example 2-16-1]
b. COC(=O)c1cccc(-c2ccc3c(c2)nc(Nc2ccc(OC(F)(F)F)cc2)n3[C@H]2C[C@@H](C)CC(C)(C)C2)c1 (racemic)
*Q* # compare IC50 for a vs b ; return the one with the smaller value State the label of the item chosen.
*A* b
(b: 1500 nM, a: 7800 nM)

a. COC(=O)c1ccc(-c2ccc3c(c2)nc(Nc2ccc(OC(F)(F)F)cc2)n3[C@H]2C[C@@H](C)CC(C)(C)C2)cc1 (racemic)
b. C[C@@H]1C[C@H](n2c(Nc3ccc(OC(F)(F)F)cc3)nc3cc(-c4cccc(C(=O)O)c4)ccc32)CC(C)(C)C1 (racemic)
c. C[C@H]1C[C@@H](n2c(Nc3ccc(OC(F)(F)F)cc3)nc3cc(-c4ccc(C(N)=O)cc4)ccc32)CC(C)(C)C1 (stereo in doubt)
d. Cc1n[nH]c(C)c1-c1ccc2c(c1)nc(Nc1ccc(SC(F)(F)F)cc1)n2[C@H]1C[C@@H](C)CC(C)(C)C1 (stereo in doubt)
*Q* Sequence the entries by IC50, beginning with the highest number. Answer format: the labels, ordered as requested.
*A* a, c, d, b

====

Target: mutated isocitrate dehydrogenase (mIDH) protein overexpressed in LN229 R132H cells (Homo sapiens (Human), UniProt O75874, R132H)
Test: Mutant IDH1 cellular assay (2-HG in medium of LN229 R132H cells)
Format: cell-based
Settings: 24 hours, fluorescence readout
pIC50: −log10 of the molar value.
measured-metric: pIC50

Solved cases (3 shown):
- molecule: "Cc1noc(C)c1-c1ccc2c(c1)nc(Nc1ccc(SC(F)(F)F)cc1)n2[C@H]1C[C@@H](C)CC(C)(C)C1 (stereo in doubt)"
  pIC50: 5.60
- molecule: "Cc1n[nH]c(C)c1-c1ccc2c(c1)nc(Nc1ccc(OC(F)(F)F)cc1)n2[C@H]1C[C@@H](C)CC(C)(C)C1 (stereo in doubt)"
  pIC50: 5.82
- molecule: "Cc1noc(C)c1-c1ccc2c(c1)nc(Nc1ccc(C(F)(F)F)cc1)n2[C@H]1C[C@@H](C)CC(C)(C)C1 (stereo in doubt)"
  pIC50: 5.00

I. C[C@H]1C[C@@H](n2c(Nc3ccc(OC(F)(F)F)cc3)nc3cc(-c4ccnn4C)ccc32)CC(C)(C)C1 (stereo in doubt)
II. Cc1n[nH]c(C)c1-c1ccc2c(c1)nc(Nc1ccc(SC(F)(F)F)cc1)n2[C@@H]1C[C@H](C)CC(C)(C)C1 (stereo in doubt) [Example 2-10]
III. Cc1nn(C)c(C)c1-c1ccc2c(c1)nc(Nc1ccc(OC(F)(F)F)cc1)n2[C@@H]1C[C@H](C)CC(C)(C)C1 (stereo in doubt)
*Q* Sort ascending by pIC50. Put the labels in the requested order and write them down.
*A* III, I, II

====

Biological target: IDH1 R132H enzyme (Homo sapiens (Human), UniProt O75874, R132H)
Test: Mutant IDH1 R132H biochemical assay
Settings: NADPH consumption, luminescent readout; 1.5 nM enzyme, 250 μM α-KG, 1 μM NADPH, 30 minutes, 32° C.; test range 0.002-10 μM
pIC50: −log10 of the molar value.
measured-metric: pIC50

Sample records with pIC50:
- molecule: "C[C@H]1C[C@H](n2c(Nc3ccc(OC(F)(F)F)cc3)nc3cc(-c4nnn[nH]4)ccc32)CC(C)(C)C1 (racemic) [Example 2-27]"
  pIC50: 5.74
- molecule: "C[C@H]1C[C@@H](n2c(Nc3ccc(OC(F)(F)F)cc3)nc3cc(-c4cccc(C(N)=O)c4)ccc32)CC(C)(C)C1 (stereo in doubt) [Example 2-11]"
  pIC50: 6.68
- molecule: "Cc1n[nH]c(C)c1-c1ccc2c(c1)nc(Nc1ccc(OC(F)(F)F)cc1)n2[C@@H]1C[C@H](C)CC(C)(C)C1 (stereo in doubt) [Example 2-5-1]"
  pIC50: 6.17
- molecule: "Cc1nnc(-c2cc3nc(Nc4ccc(OC(F)(F)F)cc4)n(C4CC(C)(C)CC(C)(C)C4)c3cc2C)[nH]1 [Example 2-30]"
  pIC50: 6.92

A. Cc1noc(C)c1-c1ccc2c(c1)nc(Nc1ccc(OC(F)(F)F)cc1)n2[C@H]1C[C@@H](C)CC(C)(C)C1 (single isomer, unassigned) [Example 2-1-2]
B. C[C@H]1C[C@@H](n2c(Nc3ccc(OC(F)(F)F)cc3)nc3cc(-c4cnn(C)c4)ccc32)CC(C)(C)C1 (stereo in doubt) [Example 2-13]
*Q* Please state the entry with greater pIC50 among A and B . Label of pick, please.
*A* A

====

Molecular target: mutated isocitrate dehydrogenase (mIDH) protein overexpressed in LN229 R132H cells (Homo sapiens (Human), UniProt O75874, R132H)
Assay: Mutant IDH1 cellular assay (2-HG in medium of LN229 R132H cells)
Settings: 24 hours, fluorescence readout
Protocol: Mutant IDH1 Cellular Assay Levels of (2R)-2-hydroxyglutarate (2HG) were measured in medium of a cell line with overexpression of mutated isocitrate dehydrogenase (mIDH) protein. mIDH catalyzes the NADPH-dependent reduction of alpha-ketoglutarate to 2-HG. […] 2-HG was measured according to Balss et al. (Acta Neuropathol (2012) 124: 883-891). […] The conversion of resazurin to resorufin was detected by fluorescence spectroscopy at Ex 540 nm Em 600 nm. […]
pIC50: −log10 of the molar value.
measured-metric: pIC50

Solved cases below.
- compound: "Cc1cc2c(cc1-c1cc(O)no1)nc(Nc1ccc(OC(F)(F)F)cc1)n2C1CC(C)(C)CC(C)(C)C1"
  pIC50: 6.60
- compound: "Cc1noc(C)c1-c1ccc2c(c1)nc(Nc1ccc(OC(F)(F)F)cc1)n2[C@H]1C[C@@H](C)CC(C)(C)C1 (racemic)"
  pIC50: 6.05
- compound: "Cc1nc(-c2ccc3c(c2)nc(Nc2ccc(OC(F)(F)F)cc2)n3C2CC(C)(C)CC(C)(C)C2)no1"
  pIC50: 5.00
- compound: "Cc1n[nH]cc1-c1ccc2c(c1)nc(Nc1ccc(OC(F)(F)F)cc1)n2[C@@H]1C[C@H](C)CC(C)(C)C1 (stereo in doubt)"
  pIC50: 5.92
- compound: "C[C@H]1C[C@@H](n2c(Nc3ccc(OC(F)(F)F)cc3)nc3cc(-c4ccn[nH]4)ccc32)CC(C)(C)C1 (stereo in doubt)"
  pIC50: 5.70

I. C[C@H]1C[C@@H](n2c(Nc3ccc(OC(F)(F)F)cc3)nc3cc(-c4cccc(C(N)=O)c4)ccc32)CC(C)(C)C1 (stereo in doubt)
II. CC1(C)CC(n2c(Nc3ccc(OC(F)(F)F)cc3)nc3cc(-c4nnn[nH]4)ccc32)CC(C)(C)C1
III. Cc1n[nH]c(C)c1-c1ccc2c(c1)nc(Nc1ccc(C(F)(F)F)cc1)n2[C@H]1C[C@@H](C)CC(C)(C)C1 (stereo in doubt)
IV. C[C@@H]1C[C@H](n2c(Nc3ccc(OC(F)(F)F)cc3)nc3cc(-c4cccc(C(=O)O)c4)ccc32)CC(C)(C)C1 (racemic)
V. Cc1cc2c(cc1C1OC(=O)NC1=O)nc(Nc1ccc(OC(F)(F)F)cc1)n2C1CC(C)(C)CC(C)(C)C1 (stereo not drawn)
*Q* In this exercise, place the 5 compounds in ascending sequence of their recorded pIC50. When ranking, write the labels in the order the request describes.
*A* III, I, IV, II, V

I. Cc1cc(-c2ccc3c(c2)nc(Nc2ccc(OC(F)(F)F)cc2)n3[C@@H]2C[C@H](C)CC(C)(C)C2)n(C)n1 (stereo in doubt)
II. Cc1n[nH]c(C)c1-c1ccc2c(c1)nc(Nc1ccc(SC(F)(F)F)cc1)n2[C@H]1C[C@@H](C)CC(C)(C)C1 (stereo in doubt)
*Q* Between I and II , whose measured pIC50 reads higher? Kindly give the label for the entry you pick.
*A* II
